From: paper PMC5540273

Tested on: STK16
Conditions: concentration: 1 μM, replicates: in singlicate; n = 1;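 further: KINOMEscan kinase panel screen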
Reported metric: %Inh (%)
Quick reminder: number only, in %, skip the unit.

Find the recorded %Inh belonging to CCn1c(-c2c(N)noc2C)nc2cnccc21 and report it. 0

Same question for COc1cccc(C2=C(Nc3cc(Cl)c(O)c(Cl)c3)C(=O)NC2=O)c1 please. 11

Same question for CCc1ccc(-c2ccc3c(c2)-c2n[nH]cc2S(=O)(=O)N3C)cc1 please. 0

Same question for O=C(Nc1n[nH]c2cc(-c3ccsc3)ccc12)C1CC1 please. 23

Same question for Cc1cnc(N)c(/C=C/c2cncc(C(=O)NCCc3ccc(Cl)cc3Cl)c2)c1.Cl please. 1

Same question for O=C1NC(=O)C(c2ccc(Cl)cc2)=C1Nc1ccc(O)cc1 please. 0

====

Test system: RSK3(Kin.Dom.1-N-terminal)
Construct: gene RPS6KA2
Settings: concentration: 1 μM, replicates: in singlicate; n = 1
Reported metric: %Inh (%)
Quick reminder: number only, in %, skip the unit.

Find the recorded %Inh belonging to Cc1nccc(-c2c(-c3ccc(F)cc3)ncn2CCCN2CCOCC2)n1.Cl and report it. 9

Same question for CC(=O)c1c(C)c2cnc(Nc3ccn(C)n3)nc2n(C2CCCC2)c1=O please. 0

Same question for CNC(=O)c1ccc(C)c(-n2c(C)cc(OCc3ccc(F)cc3F)c(Br)c2=O)c1 please. 10

Same question for COc1cc2ncnc(Nc3cccc(Br)c3)c2cc1OC.Cl please. 0

Same question for Cn1cncc1C(=O)NC1CCN(c2ccnc(Nc3ccc(F)cc3)n2)C1 (stereo not drawn) please. 0

Same question for COc1ccc(Nc2nccc(N3CCC(NC(=O)C(C)c4ccc(Cl)cc4)C3)n2)cc1 (stereo not drawn) please. 14

Same question for COC(=O)C(Cc1ccccc1)NC(=O)NC1CCN(c2ccnc(Nc3ccc(F)cc3)n2)C1 (stereo not drawn) please. 5

Same question for Cc1c(Cn2c3ccccc3n3c(=O)cc(N4CCOCC4)nc23)cccc1C(F)(F)F please. 5

Same question for CC(=O)c1c(C)c2cnc(Nc3ccc(N4CCNCC4)cn3)nc2n(C2CCCC2)c1=O please. 0

Same question for CNc1cc(-c2ccc3c(N)n[nH]c3c2)nc(N)n1 please. 1

Same question for COc1ccc(CSc2nnc(-c3ccc4ncsc4c3)o2)cc1C(F)(F)F please. 0

Same question for COc1ccc2cc(-c3nc(-c4ccccc4C(C)C)[nH]c3-c3ccncc3)ccc2c1 please. 19

Same question for O=C(Nc1n[nH]c2nc(-c3ccco3)c(Br)cc12)C1CCN(Cc2ccccc2)C1.O=C(O)[C@H](O)[C@@H](O)C(=O)O (stereo not drawn) please. 6

Same question for COc1ccc(Nc2nccc(N3CCC(NC(=O)c4cc5ccccc5s4)C3)n2)cc1 (stereo not drawn) please. 1

====

We begin with a simple list: items and their reported %Inh.
Test system: ASK1
Construct: gene MAP3K5
Conditions: concentration: 1 μM, replicates: in singlicate; n = 1

Consider the following illustrative entries.
COC(=O)c1cccc(NC(=O)NC2CCN(c3ccnc(Nc4ccc(F)cc4)n3)C2)c1 (stereo not drawn) [GSK1379725]; 0%
Cc1ccc(NC(=O)c2ccc(Cl)cc2)cc1-c1ccc(C(=O)Nc2ccncc2)cc1 [GSK1398467]; 0%
COc1ccc(-c2coc3ccc(-c4nnc(C)o4)cc23)cc1; 0%
COc1nccc(-c2c(-c3ccc(F)cc3)ncn2CCCN2CCOCC2)n1 [SB-282852]; 0%
O=c1cc(N2CCOCC2)nc2n(Cc3cccc(Cl)c3Cl)c3ccccc3n12 [GSK2299009]; 2%

Find the recorded %Inh belonging to CCn1c(-c2c(N)noc2C)nc2cnccc21 [SB-737856] and report it. 0%

Same question for Cc1c(Cn2c3ccccc3n3c(=O)cc(N4CCOCC4)nc23)cccc1C(F)(F)F [GSK2306394] please. 0%

Same question for COc1ccc2cc(-c3nc(-c4ccccc4C(C)C)[nH]c3-c3ccncc3)ccc2c1 [SB-660566] please. 16%

Same question for Nc1cccc(-c2ccc3c(N)n[nH]c3c2)n1 [GSK2192730] please. 0%

Same question for CC(=O)c1cccc(NC(=O)NC2CCN(c3ccnc(Nc4ccc(F)cc4)n3)C2)c1 (stereo not drawn) [GSK1379710] please. 20%
